Assay: ADME solubility determination at pH 2.0 and pH 7.4
Type: physicochemical
Details: aqueous buffer, thermodynamic from solid; PBS pH 7.4, shaken at 25° C. for 24 hours, LC-MS/MS; read-out: Solubility at pH 7.4
// solubility at 24 h lookup, one value per entry

These solved cases illustrate the format of a correct answer.
Compound	solubility at 24 h
COc1ncnc(OC)c1-c1ncc2cnn(Cc3ccc(-c4nc(C(F)(F)F)cn4C)cc3)c2n1 [Example 86]	> 10 µM
CCn1cc(C(F)(F)F)nc1-c1ccc(Cn2nc(N3CCC3)c3cnc(-c4c(OC)ncnc4C4CC4)nc32)cc1 [Example 186]	> 10 µM
CCn1c(-c2ccc(Cn3ncc4cnc(-c5c(OC)ncnc5C5CC5)nc43)cc2)nc(C(F)(F)F)c1OC [Example 164]	< 10 µM

Provide one value: measured solubility at 24 h of CCc1nc2cnc(-c3c(OC)ncnc3C3CC3)nc2n1Cc1ccc(-c2nc(C(F)(F)F)cn2C(C)C)cc1 [Example 205] > 10 µM

Quote solubility at 24 h reported for CCn1cc(C(F)(F)F)nc1-c1ccc(Cn2ncc3cnc(-c4c(OC(F)F)ncnc4C4CC4)nc32)cc1 [Example 61] please. < 10 µM

State, in one line, measured solubility at 24 h of COc1ncnc(C2CC2)c1-c1ncc2cnn(Cc3ccc(-c4nc(C(F)(F)F)c[nH]4)cc3)c2n1 [Example 134] < 10 µM

Report solubility at 24 h, nothing else, for this compound: COc1ncnc(C2CC2)c1-c1ncc2c(OC)nn([C@@H](C)c3ccc(-c4nc(C(F)(F)F)c(Br)n4C)cc3)c2n1 [Example 188] < 10 µM
